// values below are reported IC50
# target under test: SGK (Homo sapiens, UniProt O00141)
# Sequence (O00141 whole entry, species assumed): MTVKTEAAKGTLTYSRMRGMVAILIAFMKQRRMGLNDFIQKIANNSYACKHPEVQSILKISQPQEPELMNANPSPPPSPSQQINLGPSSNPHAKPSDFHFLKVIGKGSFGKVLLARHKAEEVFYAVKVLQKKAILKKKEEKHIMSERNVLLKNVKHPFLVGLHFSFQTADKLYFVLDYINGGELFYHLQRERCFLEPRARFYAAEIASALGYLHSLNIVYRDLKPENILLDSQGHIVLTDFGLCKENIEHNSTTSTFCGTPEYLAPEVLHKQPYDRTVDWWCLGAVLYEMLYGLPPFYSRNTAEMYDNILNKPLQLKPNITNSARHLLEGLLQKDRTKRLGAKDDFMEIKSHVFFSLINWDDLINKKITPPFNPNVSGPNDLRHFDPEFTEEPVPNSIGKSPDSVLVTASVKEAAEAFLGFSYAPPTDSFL
observed property: IC50

[[record]]
compound = "CC(C)(C)OC(=O)Nc1nc(-c2ccncc2)sc1C#CCN1CCOCC1"
target_under_test = "SGK (Homo sapiens, UniProt O00141)"
observed_property = "IC50"
meas_value = "10 to 100 µM"

[[record]]
compound = "Nc1ncsc1C#Cc1cccc(O)c1"
target_under_test = "SGK (Homo sapiens, UniProt O00141)"
observed_property = "IC50"
meas_value = "> 1 µM"

[[record]]
compound = "Nc1ncsc1C#Cc1cnc2[nH]ccc2c1"
target_under_test = "SGK (Homo sapiens, UniProt O00141)"
observed_property = "IC50"
meas_value = "1 to 10 µM"

[[record]]
compound = "c1ccc(Cc2c[nH]c3ncsc23)cc1 [Compound A7, 6-benzyl-4H-pyrrolo[2,3-d]thiazole]"
target_under_test = "SGK (Homo sapiens, UniProt O00141)"
observed_property = "IC50"
meas_value = "> 1 µM"

[[record]]
compound = "CC(C)(C)OC(=O)Nc1ncsc1C#CCN1C(=O)c2ccccc2C1=O"
target_under_test = "SGK (Homo sapiens, UniProt O00141)"
observed_property = "IC50"
meas_value = "1 to 10 µM"


====

# target under test: PDPK1 (Homo sapiens)
# Construct: purchased
# Sequence (O15530 whole entry, species assumed): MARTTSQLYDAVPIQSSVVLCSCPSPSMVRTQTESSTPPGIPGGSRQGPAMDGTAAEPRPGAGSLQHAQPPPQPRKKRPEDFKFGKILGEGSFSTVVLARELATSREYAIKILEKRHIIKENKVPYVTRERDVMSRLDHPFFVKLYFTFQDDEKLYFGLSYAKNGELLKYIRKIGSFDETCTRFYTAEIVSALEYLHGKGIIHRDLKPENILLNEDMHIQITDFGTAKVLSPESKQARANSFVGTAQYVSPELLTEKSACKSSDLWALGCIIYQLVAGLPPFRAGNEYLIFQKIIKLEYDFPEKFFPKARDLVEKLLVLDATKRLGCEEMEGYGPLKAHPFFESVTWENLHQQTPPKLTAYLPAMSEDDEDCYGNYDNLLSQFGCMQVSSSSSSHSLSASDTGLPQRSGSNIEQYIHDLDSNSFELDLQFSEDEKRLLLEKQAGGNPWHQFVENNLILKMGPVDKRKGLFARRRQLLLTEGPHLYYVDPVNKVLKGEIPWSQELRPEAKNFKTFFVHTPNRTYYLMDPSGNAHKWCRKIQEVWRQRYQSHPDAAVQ
# assay: filter binding kinase assay (second PDPK1 line)
# Type: biochemical
# measurement context: derived from % inhibition at 1 μM
pIC50: −log10 of the molar value.
// values below are reported pIC50
observed property: pIC50

[[record]]
molecule = "Nc1ncsc1C#Cc1cnc2[nH]ccc2c1 [Compound A22]"
target_under_test = "PDPK1 (Homo sapiens)"
meas_value = "5.00 to 6.00"

[[record]]
molecule = "Nc1ncsc1C#Cc1cccc(O)c1 [Compound A27, 3-(4-aminothiazol-5-ylethynyl)phenol]"
target_under_test = "PDPK1 (Homo sapiens)"
meas_value = "< 6.00"

[[record]]
molecule = "c1ccc(Cc2c[nH]c3ncsc23)cc1 [Compound A7, 6-benzyl-4H-pyrrolo[2,3-d]thiazole]"
target_under_test = "PDPK1 (Homo sapiens)"
meas_value = "< 6.00"

[[record]]
molecule = "CC(C)(C)OC(=O)Nc1ncsc1C#CCN1C(=O)c2ccccc2C1=O [Compound A26]"
target_under_test = "PDPK1 (Homo sapiens)"
meas_value = "4.00 to 5.00"

[[record]]
molecule = "CC(C)(C)OC(=O)Nc1nc(-c2ccncc2)sc1C#CCN1CCOCC1 [Compound A25]"
target_under_test = "PDPK1 (Homo sapiens)"
meas_value = "< 6.00"


====

Below are pIC50 values recorded for DYRK1A (Homo sapiens).
pIC50: −log10 of the molar value.
observed property: pIC50

[[record]]
compound = "c1ccc(Cc2c[nH]c3ncsc23)cc1 [Compound A7, 6-benzyl-4H-pyrrolo[2,3-d]thiazole]"
observed_property = "pIC50"
meas_value = "< 6.00"

[[record]]
compound = "CC(C)(C)OC(=O)Nc1nc(-c2ccncc2)sc1C#CCN1CCOCC1"
observed_property = "pIC50"
meas_value = "< 6.00"

[[record]]
compound = "Nc1ncsc1C#Cc1cccc(O)c1"
observed_property = "pIC50"
meas_value = "4.00 to 5.00"

[[record]]
compound = "Nc1ncsc1C#Cc1cnc2[nH]ccc2c1"
observed_property = "pIC50"
meas_value = "< 6.00"

[[record]]
compound = "CC(C)(C)OC(=O)Nc1ncsc1C#CCN1C(=O)c2ccccc2C1=O"
observed_property = "pIC50"
meas_value = "4.00 to 5.00"


====

Below are IC50 values recorded for CSNK2A1 (CK2) (Homo sapiens).
observed property: IC50

[[record]]
compound_structure = "Nc1ncsc1C#Cc1cccc(O)c1"
meas_value = "> 1000 nM"

[[record]]
compound_structure = "CC(C)(C)OC(=O)Nc1nc(-c2ccncc2)sc1C#CCN1CCOCC1"
meas_value = "> 1000 nM"

[[record]]
compound_structure = "Nc1ncsc1C#Cc1cnc2[nH]ccc2c1"
meas_value = "> 1000 nM"

[[record]]
compound_structure = "CC(C)(C)OC(=O)Nc1ncsc1C#CCN1C(=O)c2ccccc2C1=O"
meas_value = "10000 to 100000 nM"


====

# target under test: PKN2 (PRK2) (Homo sapiens)
# Sequence (Q16513 whole entry, species assumed): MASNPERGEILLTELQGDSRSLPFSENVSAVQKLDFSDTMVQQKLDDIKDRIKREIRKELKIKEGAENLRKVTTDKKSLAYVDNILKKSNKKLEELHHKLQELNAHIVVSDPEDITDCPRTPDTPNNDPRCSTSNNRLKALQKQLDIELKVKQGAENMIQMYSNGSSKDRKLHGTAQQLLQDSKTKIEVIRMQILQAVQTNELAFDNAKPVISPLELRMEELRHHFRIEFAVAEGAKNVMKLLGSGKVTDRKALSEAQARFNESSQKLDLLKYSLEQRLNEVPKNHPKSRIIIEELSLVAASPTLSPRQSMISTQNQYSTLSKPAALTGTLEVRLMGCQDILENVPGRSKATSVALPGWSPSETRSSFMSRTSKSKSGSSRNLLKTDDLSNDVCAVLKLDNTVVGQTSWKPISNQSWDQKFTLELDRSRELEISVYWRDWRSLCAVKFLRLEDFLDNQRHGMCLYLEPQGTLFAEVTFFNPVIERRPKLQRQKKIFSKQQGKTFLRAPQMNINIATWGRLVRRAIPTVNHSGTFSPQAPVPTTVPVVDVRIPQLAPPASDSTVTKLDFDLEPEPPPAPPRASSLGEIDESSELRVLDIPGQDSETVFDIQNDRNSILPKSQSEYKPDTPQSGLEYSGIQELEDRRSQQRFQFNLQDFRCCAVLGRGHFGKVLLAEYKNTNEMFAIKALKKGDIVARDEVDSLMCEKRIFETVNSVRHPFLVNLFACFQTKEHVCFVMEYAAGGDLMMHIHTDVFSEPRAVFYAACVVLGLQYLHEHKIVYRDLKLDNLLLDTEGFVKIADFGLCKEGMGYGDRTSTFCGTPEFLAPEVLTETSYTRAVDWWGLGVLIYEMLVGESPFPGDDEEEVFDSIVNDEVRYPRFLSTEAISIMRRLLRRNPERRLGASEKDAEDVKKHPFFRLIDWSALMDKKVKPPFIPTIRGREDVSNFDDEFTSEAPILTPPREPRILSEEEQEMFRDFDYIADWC
pIC50: −log10 of the molar value.
observed property: pIC50

[[record]]
molecule = "c1ccc(Cc2c[nH]c3ncsc23)cc1 [Compound A7, 6-benzyl-4H-pyrrolo[2,3-d]thiazole]"
target_under_test = "PKN2 (PRK2) (Homo sapiens)"
meas_value = "5.00 to 6.00"

[[record]]
molecule = "CC(C)(C)OC(=O)Nc1ncsc1C#CCN1C(=O)c2ccccc2C1=O [Compound A26]"
target_under_test = "PKN2 (PRK2) (Homo sapiens)"
meas_value = "5.00 to 6.00"

[[record]]
molecule = "CC(C)(C)OC(=O)Nc1nc(-c2ccncc2)sc1C#CCN1CCOCC1 [Compound A25]"
target_under_test = "PKN2 (PRK2) (Homo sapiens)"
meas_value = "< 6.00"

[[record]]
molecule = "Nc1ncsc1C#Cc1cccc(O)c1 [Compound A27, 3-(4-aminothiazol-5-ylethynyl)phenol]"
target_under_test = "PKN2 (PRK2) (Homo sapiens)"
meas_value = "4.00 to 5.00"

[[record]]
molecule = "Nc1ncsc1C#Cc1cnc2[nH]ccc2c1 [Compound A22]"
target_under_test = "PKN2 (PRK2) (Homo sapiens)"
meas_value = "6.00 to 8.00"


====

// values below are reported pIC50
# target under test: SYK (Homo sapiens, UniProt P43405)
# Construct: purchased
# assay: filter binding kinase assay
# Assay type: biochemical
# measurement context: derived from % inhibition at 1 μM
pIC50: −log10 of the molar value.
observed property: pIC50

[[record]]
compound = "Nc1ncsc1C#Cc1cnc2[nH]ccc2c1"
target_under_test = "SYK (Homo sapiens, UniProt P43405)"
meas_value = "4.00 to 5.00"

[[record]]
compound = "Nc1ncsc1C#Cc1cccc(O)c1"
target_under_test = "SYK (Homo sapiens, UniProt P43405)"
meas_value = "4.00 to 5.00"

[[record]]
compound = "CC(C)(C)OC(=O)Nc1nc(-c2ccncc2)sc1C#CCN1CCOCC1"
target_under_test = "SYK (Homo sapiens, UniProt P43405)"
meas_value = "< 6.00"

[[record]]
compound = "CC(C)(C)OC(=O)Nc1ncsc1C#CCN1C(=O)c2ccccc2C1=O"
target_under_test = "SYK (Homo sapiens, UniProt P43405)"
meas_value = "< 6.00"

[[record]]
compound = "c1ccc(Cc2c[nH]c3ncsc23)cc1 [Compound A7, 6-benzyl-4H-pyrrolo[2,3-d]thiazole]"
target_under_test = "SYK (Homo sapiens, UniProt P43405)"
meas_value = "< 6.00"


====

pIC50: −log10 of the molar value.
Below are pIC50 values recorded for BRSK2 (Homo sapiens, UniProt Q8IWQ3).
observed property: pIC50

[[record]]
compound = "CC(C)(C)OC(=O)Nc1ncsc1C#CCN1C(=O)c2ccccc2C1=O"
meas_value = "< 6.00"

[[record]]
compound = "Nc1ncsc1C#Cc1cccc(O)c1"
meas_value = "4.00 to 5.00"

[[record]]
compound = "CC(C)(C)OC(=O)Nc1nc(-c2ccncc2)sc1C#CCN1CCOCC1"
meas_value = "< 6.00"

[[record]]
compound = "Nc1ncsc1C#Cc1cnc2[nH]ccc2c1"
meas_value = "< 6.00"

[[record]]
compound = "c1ccc(Cc2c[nH]c3ncsc23)cc1 [Compound A7, 6-benzyl-4H-pyrrolo[2,3-d]thiazole]"
meas_value = "< 6.00"


====

Below are IC50 values recorded for NEK6 (Homo sapiens, UniProt Q9HC98).
observed property: IC50

[[record]]
compound = "Nc1ncsc1C#Cc1cnc2[nH]ccc2c1"
meas_value = "> 1 µM"

[[record]]
compound = "CC(C)(C)OC(=O)Nc1nc(-c2ccncc2)sc1C#CCN1CCOCC1"
meas_value = "1 to 10 µM"

[[record]]
compound = "c1ccc(Cc2c[nH]c3ncsc23)cc1 [Compound A7, 6-benzyl-4H-pyrrolo[2,3-d]thiazole]"
meas_value = "10 to 100 µM"

[[record]]
compound = "CC(C)(C)OC(=O)Nc1ncsc1C#CCN1C(=O)c2ccccc2C1=O"
meas_value = "10 to 100 µM"

[[record]]
compound = "Nc1ncsc1C#Cc1cccc(O)c1"
meas_value = "10 to 100 µM"


====

Below are IC50 values recorded for HIPK1 (Homo sapiens, UniProt Q86Z02).
observed property: IC50

[[record]]
compound = "CC(C)(C)OC(=O)Nc1nc(-c2ccncc2)sc1C#CCN1CCOCC1"
meas_value = "0.01 to 1 µM"

[[record]]
compound = "c1ccc(Cc2c[nH]c3ncsc23)cc1 [Compound A7, 6-benzyl-4H-pyrrolo[2,3-d]thiazole]"
meas_value = "> 1 µM"

[[record]]
compound = "CC(C)(C)OC(=O)Nc1ncsc1C#CCN1C(=O)c2ccccc2C1=O"
meas_value = "> 1 µM"

[[record]]
compound = "Nc1ncsc1C#Cc1cnc2[nH]ccc2c1"
meas_value = "0.01 to 1 µM"

[[record]]
compound = "Nc1ncsc1C#Cc1cccc(O)c1"
meas_value = "1 to 10 µM"

